Quick reference for IC50 among some compounds
Test system: Huh-7
Experiment: Cytotoxicity against human HuH7 cells assessed as reduction in cell viability after 72 hrs by WST-1 assay
Type: functional, cell-based
Settings: Huh-7, 72 h

| CHEMICAL STRUCTURE | TARGET DESC | IC50 |
| --- | --- | --- |
| C1=C/[C@H]2[C@@H]3CCCC[C@H]3C[C@H]2NCCCN[C@@H]2C[C@@H]3CCCC[C@H]3[C@@H]2/C=C/1 | Huh-7 | 3.9 µM |
| CCCCC[C@H]1O[C@@H]2CC[C@H]1NC(=N)N2 | Huh-7 | > 10 µM |

Okay, next one:
Challenge: Give IC50 for the following compound: `CCCCC[C@@H]1O[C@@H]2CC[C@H]1NC(=N)N2`
Response given: > 10 µM

====

Tested on: Huh-7
Test: Cytotoxicity against human HuH7 cells assessed as reduction in cell viability after 72 hrs by WST-1 assay
Assay type: functional, cell-based
Conditions: Huh-7, 72 h
ENDPOINT LABEL: log10(IC50) (log10 of the value in µM)
A difference of one corresponds to tenfold IC50; all values are log10 with IC50 in µM.

See these solved cases before continuing.
| CHEMICAL STRUCTURE | log10(IC50) |
| --- | --- |
| C1=C\[C@H]2[C@@H]3CCCC[C@H]3C[C@H]2NCCCN[C@H]2C[C@@H]3CCCC[C@H]3[C@@H]2/C=C/1 | 0.83 |
| N[C@@H]1C[C@@H]2CCCC[C@H]2[C@@H]1/C=C/C=C\[C@H]1[C@@H]2CCCC[C@H]2C[C@@H]1N | 0.86 |
| C1=C/[C@H]2[C@@H]3CCCC[C@H]3C[C@@H]2NCCCN[C@@H]2C[C@@H]3CCCC[C@H]3[C@@H]2/C=C/1 | 0.56 |
| COc1cccc2c1C(=O)c1c(O)c3c(c(O)c1C2=O)C[C@@](O)(C(=O)CO)C[C@@H]3O[C@H]1C[C@H](N)[C@H](O)[C@H](C)O1 | -0.40 |

Challenge: Look up log10(IC50) of `N[C@@H]1C[C@@H]2CCCC[C@H]2[C@@H]1/C=C\C=C\[C@H]1[C@@H]2CCCC[C@H]2C[C@@H]1N` and report it.
Response given: 0.89
